# study system: UniProtKB P00533
# test method notes: Inhibition of EGFR PTK at 1 uM
reported endpoint: inhibition (%)
Kindly answer with a numeric value in %, unit omitted.

// worked examples, inhibition included
compound: C=CC(=O)Nc1ccc(C(=O)Nc2cccc(Br)c2)c(O)c1
reported endpoint: inhibition
readout value: 89.9

compound: C=CC(=O)Nc1ccc(C(=O)Nc2cccc(C(O)c3ccccc3)c2)c(O)c1 (stereo not given)
reported endpoint: inhibition
readout value: 91.7

compound: C=CC(=O)Nc1ccc(C(=O)Nc2ccc(Oc3ccccc3)cc2)c(O)c1
reported endpoint: inhibition
readout value: 28.1

compound: C=CC(=O)Nc1ccc(O)c(C(=O)Nc2cccc(Br)c2)c1
reported endpoint: inhibition
readout value: 90.6

Then there is this compound:
In: Recorded inhibition for C=CC(=O)Nc1ccc(C(=O)Nc2cccc(Cl)c2)c(O)c1 with UniProtKB P00533, please?
Out: 46.3

----------
# study system: Epidermal growth factor receptor (Homo sapiens)
# test method notes: Inhibition of EGFR PTK at 10 uM
Everything with inhibition lower than 60% is false (0); everything else, including exactly 60%, is true (1).

compound: C=CC(=O)Nc1ccc(O)c(C(=O)Nc2cccc(Br)c2)c1
study system: Epidermal growth factor receptor (Homo sapiens)
assigned label: true (1)
//
compound: C=CC(=O)Nc1ccc(C(=O)Nc2cccc(C(=O)N(CC)CC)c2)c(O)c1
study system: Epidermal growth factor receptor (Homo sapiens)
assigned label: true (1)
//
compound: C=CC(=O)Nc1ccc(C(=O)Nc2cccc(C(=O)N3CCCCC3)c2)c(O)c1
study system: Epidermal growth factor receptor (Homo sapiens)
assigned label: true (1)
//
compound: CCC(=O)Nc1ccc(C(=O)Nc2cccc(C(=O)N(CC)CC)c2)c(O)c1
study system: Epidermal growth factor receptor (Homo sapiens)
assigned label: false (0)

In: Identify whether the reported inhibition of the following compound is 60% or greater: C=CC(=O)Nc1ccc(C(=O)Nc2cccc(Cl)c2)c(O)c1
Out: true (1)

In: Check C=CC(=O)Nc1ccc(C(=O)Nc2cccc(C(O)c3ccccc3)c2)c(OC)c1 (stereo not given) too.
Out: false (0)

----------
# study system: UniProt P00533
# test method notes: Inhibition of EGFR PTK at 1 uM
reported endpoint: inhibition (%)
Kindly answer with a numeric value in %, unit omitted.

smiles text: C=CC(=O)Nc1ccc(C(=O)Nc2cccc(C(=O)N3CCCC3)c2)c(O)c1
study system: UniProt P00533
inhibition (%): 88.6
--
smiles text: C=CC(=O)Nc1ccc(C(=O)Nc2cccc(C(=O)N(CC)CC)c2)c(O)c1
study system: UniProt P00533
inhibition (%): 54.4
--
smiles text: C=CC(=O)Nc1ccc(C(=O)Nc2cccc(Oc3ccccc3)c2)c(O)c1
study system: UniProt P00533
inhibition (%): 89.3
--
smiles text: C=CC(=O)Nc1ccc(O)c(C(=O)Nc2cccc(Cl)c2)c1
study system: UniProt P00533
inhibition (%): 38.3

Then there is this compound:
In: Record request: inhibition value, item C=CC(=O)Nc1ccc(C(=O)Nc2cccc(C(=O)N3CCCCC3)c2)c(O)c1
Out: 91.2

----------
# study system: Epidermal growth factor receptor (Homo sapiens)
# test method notes: Inhibition of EGFR PTK at 0.01 uM
Quick reference: inhibition of the listed items.
Answer by giving the amount and then stating its unit.

// worked examples, inhibition included
compound: C=CC(=O)Nc1ccc(C(=O)Nc2cccc(C(=O)N3CCCCC3)c2)c(O)c1
reported endpoint: inhibition
readout value: 75.1%

compound: C=CC(=O)Nc1ccc(C(=O)Nc2cccc(Oc3ccccc3)c2)c(O)c1
reported endpoint: inhibition
readout value: 18.8%

compound: C=CC(=O)Nc1ccc(C(=O)Nc2cccc(C(O)c3ccccc3)c2)c(O)c1 (stereo not drawn)
reported endpoint: inhibition
readout value: 49.3%

compound: C=CC(=O)Nc1ccc(C(=O)Nc2cccc(Br)c2)c(O)c1
reported endpoint: inhibition
readout value: 76%

compound: C=CC(=O)Nc1ccc(C(=O)Nc2cccc(C(=O)N3CCCC3)c2)c(O)c1
reported endpoint: inhibition
readout value: 26%

In: Record request: inhibition value, item C=CC(=O)Nc1ccc(C(=O)Nc2cccc(C(=O)N(CC)CC)c2)c(O)c1
Out: 14.1%

In: Check C=CC(=O)Nc1ccc(O)c(C(=O)Nc2cccc(Br)c2)c1 too.
Out: 52.9%

In: Check C=CC(=O)Nc1ccc(C(=O)Nc2ccc(Oc3ccccc3)cc2)c(O)c1 too.
Out: 0%

----------
# study system: Epidermal growth factor receptor (Homo sapiens) (UniProt P00533)
# Sequence (P00533 whole entry): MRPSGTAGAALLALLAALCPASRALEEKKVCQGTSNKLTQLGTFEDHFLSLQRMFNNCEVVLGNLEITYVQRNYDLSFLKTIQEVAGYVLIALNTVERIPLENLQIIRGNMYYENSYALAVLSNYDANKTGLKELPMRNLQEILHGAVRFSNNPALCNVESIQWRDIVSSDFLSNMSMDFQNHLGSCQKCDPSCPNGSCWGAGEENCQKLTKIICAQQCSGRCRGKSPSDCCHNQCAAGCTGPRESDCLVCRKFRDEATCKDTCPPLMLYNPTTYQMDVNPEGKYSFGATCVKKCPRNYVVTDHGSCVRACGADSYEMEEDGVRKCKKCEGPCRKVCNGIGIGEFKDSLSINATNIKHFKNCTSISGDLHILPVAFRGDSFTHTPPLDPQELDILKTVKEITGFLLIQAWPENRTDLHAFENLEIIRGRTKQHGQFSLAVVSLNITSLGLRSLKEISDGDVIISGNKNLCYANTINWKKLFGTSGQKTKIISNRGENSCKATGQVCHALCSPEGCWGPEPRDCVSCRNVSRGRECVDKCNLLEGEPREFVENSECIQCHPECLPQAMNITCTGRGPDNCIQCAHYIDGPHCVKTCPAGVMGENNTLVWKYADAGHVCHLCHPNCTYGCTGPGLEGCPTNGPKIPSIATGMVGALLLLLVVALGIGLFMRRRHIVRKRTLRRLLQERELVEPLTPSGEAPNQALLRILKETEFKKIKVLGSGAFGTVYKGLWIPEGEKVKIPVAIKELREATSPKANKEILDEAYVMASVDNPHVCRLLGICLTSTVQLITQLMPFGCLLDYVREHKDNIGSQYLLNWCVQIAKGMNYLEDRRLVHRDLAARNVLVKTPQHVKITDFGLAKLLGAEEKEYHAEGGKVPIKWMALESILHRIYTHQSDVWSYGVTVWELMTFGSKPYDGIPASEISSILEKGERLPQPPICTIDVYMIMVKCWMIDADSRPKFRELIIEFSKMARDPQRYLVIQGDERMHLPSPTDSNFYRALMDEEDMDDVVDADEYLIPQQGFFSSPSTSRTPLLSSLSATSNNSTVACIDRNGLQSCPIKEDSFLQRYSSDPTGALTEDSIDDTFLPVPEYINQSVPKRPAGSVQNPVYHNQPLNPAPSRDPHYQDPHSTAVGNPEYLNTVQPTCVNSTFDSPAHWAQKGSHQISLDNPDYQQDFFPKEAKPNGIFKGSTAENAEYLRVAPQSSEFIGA
# test method notes: Inhibition of EGFR PTK at 10 uM
Quick reference: inhibition of the listed items.
Kindly answer with a numeric value in %, unit omitted.

// worked examples, inhibition included
compound: C=CC(=O)Nc1ccc(O)c(C(=O)Nc2cccc(Cl)c2)c1
readout value: 73.1

compound: C=CC(=O)Nc1ccc(C(=O)Nc2cccc(Oc3ccccc3)c2)c(OC)c1
readout value: 1.59

compound: CCC(=O)Nc1ccc(C(=O)Nc2ccc(Oc3ccccc3)cc2)c(O)c1
readout value: 48.5

In: Record request: inhibition value, item C=CC(=O)Nc1ccc(C(=O)Nc2cccc(C(O)c3ccccc3)c2)c(O)c1 (centres undefined)
Out: 93.5

----------
# study system: Epidermal growth factor receptor (Homo sapiens) (UniProt P00533)
# test method notes: Inhibition of EGFR PTK at 0.1 uM
reported endpoint: inhibition (%)
Kindly answer with a numeric value in %, unit omitted.

molecule: C=CC(=O)Nc1ccc(O)c(C(=O)Nc2cccc(Br)c2)c1
unit of measurement: %
readout value: 89.5
//
molecule: C=CC(=O)Nc1ccc(C(=O)Nc2cccc(Cl)c2)c(O)c1
unit of measurement: %
readout value: 21.6

In: Record request: inhibition value, item C=CC(=O)Nc1ccc(C(=O)Nc2cccc(C(=O)N(CC)CC)c2)c(O)c1
Out: 40.4

In: Check C=CC(=O)Nc1ccc(O)c(C(=O)Nc2cccc(Cl)c2)c1 too.
Out: 23.3

In: Check C=CC(=O)Nc1ccc(C(=O)Nc2cccc(C(=O)N3CCCCC3)c2)c(O)c1 too.
Out: 88

In: Check C=CC(=O)Nc1ccc(C(=O)Nc2ccc(Oc3ccccc3)cc2)c(O)c1 too.
Out: 0.8

In: Check C=CC(=O)Nc1ccc(C(=O)Nc2cccc(Oc3ccccc3)c2)c(O)c1 too.
Out: 86.6

In: Check C=CC(=O)Nc1ccc(C(=O)Nc2cccc(Br)c2)c(O)c1 too.
Out: 88.2

In: Check C=CC(=O)Nc1ccc(C(=O)Nc2cccc(C(=O)N3CCCC3)c2)c(O)c1 too.
Out: 84.2

In: Check C=CC(=O)Nc1ccc(C(=O)Nc2cccc(C(O)c3ccccc3)c2)c(O)c1 (stereo not given) too.
Out: 84.8

----------
# study system: UniProt:P00533
# test method notes: Inhibition of EGFR PTK at 10 uM
Quick reference: inhibition of the listed items.
Kindly answer with a numeric value in %, unit omitted.

// worked examples, inhibition included
smiles text: C=CC(=O)Nc1ccc(C(=O)Nc2ccc(Oc3ccccc3)cc2)c(O)c1
reported endpoint: inhibition
readout value: 62.2
//
smiles text: C=CC(=O)Nc1ccc(C(=O)Nc2cccc(Oc3ccccc3)c2)c(O)c1
reported endpoint: inhibition
readout value: 91.2
//
smiles text: C=CC(=O)Nc1ccc(C(=O)Nc2cccc(Br)c2)c(O)c1
reported endpoint: inhibition
readout value: 91.3

Then there is this molecule:
In: Record request: inhibition value, item C=CC(=O)Nc1ccc(C(=O)Nc2cccc(C(=O)N3CCCC3)c2)c(O)c1
Out: 91
